Origin of measurements: paper PMC7073886

# Experimental details: Human liver microsomal Clint
# Assay type: in vitro ADME
# Protocol conditions: human liver microsomes, intrinsic clearance; read-out: HLM Clint
Returns: string. Value is Fulfilled if measured microsomal CLint is below 100 µL/min/mg, and Not fulfilled if it is greater than or equal to it.

{"Compound": "CN1CCCN(c2ncc(-c3ccc4c(c3)ncc3c5ccccc5[nH]c43)cn2)CC1", "Answer label": "Not fulfilled"}
{"Compound": "CCCN1CCCN(c2ncc(-c3ccc4c(Nc5cnccn5)ccnc4c3)cn2)CC1", "Answer label": "Not fulfilled"}
{"Compound": "O=S(=O)(c1ccc(-c2ccc3nccc(Nc4ncccn4)c3c2)cc1)N1CCOCC1", "Answer label": "Not fulfilled"}
{"Compound": "CN1CCCN(c2ccc(Nc3ccc4c(Nc5cnccn5)ccnc4c3)cc2)CC1", "Answer label": "Fulfilled"}
{"Compound": "COc1ccc(Nc2ccnc3cc(-c4ccc(S(=O)(=O)N5CCCN(C)CC5)cc4)ccc23)cc1Cl", "Answer label": "Not fulfilled"}
{"Compound": "CN(CCNc1ncc(-c2ccc3c(Nc4cnccn4)ccnc3c2)cn1)C(=O)OC(C)(C)C", "Answer label": "Not fulfilled"}
{"Compound": "COC(=O)C1CCCN1c1ncc(-c2ccc3c(Nc4cnccn4)ccnc3c2)cn1 (stereo not drawn)", "Answer label": "Not fulfilled"}
{"Compound": "c1cnc(Nc2ccnc3cc(-c4cnc(N5CCCNCC5)nc4)ccc23)cn1", "Answer label": "Fulfilled"}
{"Compound": "CN1CCCN(S(=O)(=O)c2ccc(-c3ccc4c(Nc5ccc(Cl)cn5)ccnc4c3)cc2)CC1", "Answer label": "Not fulfilled"}
{"Compound": "COc1ccc(NC(=O)c2ccc(-c3ccc(S(=O)(=O)N4CCN(C)CC4)cc3)cc2O)cc1Cl", "Answer label": "Fulfilled"}
{"Compound": "Cc1ccc2[nH]c3c4ccc(-c5cnc(N6CCCN(C)CC6)nc5)cc4ncc3c2c1", "Answer label": "Not fulfilled"}
{"Compound": "CCN1CCN(c2ncc(-c3ccc4c(Nc5cnccn5)ccnc4c3)cn2)CC1", "Answer label": "Not fulfilled"}
{"Compound": "O=C(O)C1CCCN1c1ncc(-c2ccc3c(Nc4cnccn4)ccnc3c2)cn1 (stereo not drawn)", "Answer label": "Fulfilled"}
{"Compound": "c1cc(-c2ccc3c(c2)ncc2c4ccccc4[nH]c32)cc(N2CCOCC2)c1", "Answer label": "Fulfilled"}
{"Compound": "Cc1cnc(Nc2ccnc3cc(-c4cnc(N5CCN(C)CC5)nc4)ccc23)cn1", "Answer label": "Not fulfilled"}
{"Compound": "CC(C)(C)OC(=O)N1CCN(c2ncc(-c3ccc4c(Nc5cnccn5)ccnc4c3)cn2)CC1", "Answer label": "Not fulfilled"}
{"Compound": "COc1ccc(NC(=O)c2ccc(-c3cccc(N4CCOCC4)c3)cc2N)cc1Cl", "Answer label": "Fulfilled"}
{"Compound": "COc1ccc(Nc2ccnc3cc(-c4cnc(N5CCCN(C)CC5)nc4)ccc23)cc1Cl", "Answer label": "Not fulfilled"}

###

# Experimental details: Log D7.4 shake-flask octanol-water
# Assay type: physicochemical
# Protocol conditions: pH 7.4

{"Compound": "C[S+]([O-])CCNc1ncc(-c2ccc3c(Nc4cnccn4)ccnc3c2)cn1 (centres unmarked) [S2b]", "LogD 7.4": 1.7}
{"Compound": "C[C@@H]1CNCCN1C(=O)c1ccc(-c2cnc(N3CCCN(C)CC3)nc2)cc1N [S4c]", "LogD 7.4": -0.4}
{"Compound": "O=S(=O)(c1ccc(-c2ccc3nccc(NCCC4CCOCC4)c3c2)cc1)N1CCOCC1 [S3h]", "LogD 7.4": 2.8}
{"Compound": "O=S(=O)(c1ccc(-c2ccc3nccc(NC4CCOCC4)c3c2)cc1)N1CCOCC1 [S3f]", "LogD 7.4": 2.3}
{"Compound": "c1cnc(Nc2ccnc3cc(-c4cnc(N5CCOCC5)nc4)ccc23)cn1 [S2d]", "LogD 7.4": 3.7}
{"Compound": "CN1CCCN(c2ncc(-c3ccc4nccc(Nc5cnccn5)c4c3)cn2)CC1 [S3i]", "LogD 7.4": 2.5}
{"Compound": "O=S(=O)(c1ccc(-c2ccc3nccc(N[C@@H]4CCCC[C@H]4O)c3c2)cc1)N1CCOCC1 (relative stereo) [S3d]", "LogD 7.4": 2.4}
{"Compound": "CN1CCCN(c2ncc(-c3ccc4nccc(Nc5ccncn5)c4c3)cn2)CC1 [S3j]", "LogD 7.4": 2.2}
{"Compound": "O=S(=O)(c1ccc(-c2ccc3nccc(Nc4ccncn4)c3c2)cc1)N1CCOCC1 [S3a]", "LogD 7.4": 3.3}
{"Compound": "CN(C)CCN(C)c1ncc(-c2ccc3c(Nc4cnccn4)ccnc3c2)cn1 [S2c]", "LogD 7.4": 2.3}
{"Compound": "C[C@@H]1CNCCN1C(=O)c1ccc(-c2cccc(N3CCOCC3)c2)cc1N [S4d]", "LogD 7.4": 1}
{"Compound": "CS(=O)(=O)N1CCN(c2ncc(-c3ccc4c(Nc5cnccn5)ccnc4c3)cn2)CC1 [S2a]", "LogD 7.4": 3.1}
{"Compound": "O=S(=O)(c1ccc(-c2ccc3nccc(NCC4CCOCC4)c3c2)cc1)N1CCOCC1 [S3g]", "LogD 7.4": 2.7}
{"Compound": "O=S(=O)(c1ccc(-c2ccc3nccc(NCCN4CCCC4)c3c2)cc1)N1CCOCC1 [S3e]", "LogD 7.4": 2.2}

###

# Experimental details: Rat hepatocyte Clint
# Type: in vitro ADME
# Protocol conditions: rat hepatocytes, intrinsic clearance; read-out: RH CLint
Value type: log10 of hepatocyte CLint (log10 of the value in µL/min/1e6 cells)

{"Cpd smiles": "COc1ccc(NC(=O)c2ccc(-c3cccc(N4CCOCC4)c3)cc2N)cc1Cl", "Value type": "log10 of hepatocyte CLint", "Value observed": 0.64}
{"Cpd smiles": "COc1ccc(NC(=O)c2ccc(-c3cccc(N4CCOCC4)c3)cc2O)cc1Cl", "Value type": "log10 of hepatocyte CLint", "Value observed": 2.48}
{"Cpd smiles": "CCN1CCCN(c2ncc(-c3ccc4c(Nc5cnccn5)ccnc4c3C)cn2)CC1", "Value type": "log10 of hepatocyte CLint", "Value observed": 1.32}
{"Cpd smiles": "CN1CCCN(c2ccc(Nc3ccc4c(Nc5cnccn5)ccnc4c3)cc2)CC1", "Value type": "log10 of hepatocyte CLint", "Value observed": 1.15}
{"Cpd smiles": "CCCN1CCN(c2ncc(-c3ccc4c(Nc5cnccn5)ccnc4c3)cn2)CC1", "Value type": "log10 of hepatocyte CLint", "Value observed": 1.65}
{"Cpd smiles": "c1cc(-c2ccc3c(c2)ncc2c4ccccc4[nH]c32)cc(N2CCOCC2)c1", "Value type": "log10 of hepatocyte CLint", "Value observed": 1.38}
{"Cpd smiles": "Cc1ccc2[nH]c3c4ccc(-c5cnc(N6CCCN(C)CC6)nc5)cc4ncc3c2c1", "Value type": "log10 of hepatocyte CLint", "Value observed": 0.85}
{"Cpd smiles": "CC(C)(C)OC(=O)N1CCN(c2ncc(-c3ccc4c(Nc5cnccn5)ccnc4c3)cn2)CC1", "Value type": "log10 of hepatocyte CLint", "Value observed": 1.51}

###

RH CLint by entry:
# Experimental details: Rat hepatocyte Clint
# Format: in vitro ADME
# Protocol conditions: rat hepatocytes, intrinsic clearance
Value type: RH CLint (µL/min/10^6 cells)

{"Compound": "CN1CCCN(c2ncc(-c3ccc4nccc(Nc5ccncn5)c4c3)cn2)CC1", "Value type": "RH CLint", "Value observed": 19}
{"Compound": "c1cnc(Nc2ccnc3cc(-c4cnc(N5CCOCC5)nc4)ccc23)cn1", "Value type": "RH CLint", "Value observed": 93}
{"Compound": "CN1CCCN(c2ncc(-c3ccc4nccc(Nc5cnccn5)c4c3)cn2)CC1", "Value type": "RH CLint", "Value observed": 12}
{"Compound": "CN1CCC(Nc2ccnc3ccc(-c4ccc(S(=O)(=O)N5CCOCC5)cc4)cc23)CC1", "Value type": "RH CLint", "Value observed": 3.7}
{"Compound": "C[C@@H]1CNCCN1C(=O)c1ccc(-c2cnc(N3CCCN(C)CC3)nc2)cc1N", "Value type": "RH CLint", "Value observed": 2.6}
{"Compound": "O=S(=O)(c1ccc(-c2ccc3nccc(N[C@@H]4CCCC[C@H]4O)c3c2)cc1)N1CCOCC1 (relative stereo)", "Value type": "RH CLint", "Value observed": 30}
{"Compound": "O=S(=O)(c1ccc(-c2ccc3nccc(NCC4CCOCC4)c3c2)cc1)N1CCOCC1", "Value type": "RH CLint", "Value observed": 72}
{"Compound": "O=S(=O)(c1ccc(-c2ccc3nccc(NC4CCOCC4)c3c2)cc1)N1CCOCC1", "Value type": "RH CLint", "Value observed": 20}
{"Compound": "O=S(=O)(c1ccc(-c2ccc3nccc(NCCN4CCCC4)c3c2)cc1)N1CCOCC1", "Value type": "RH CLint", "Value observed": 10}
